Target or system: Voltage-gated potassium channel subunit beta-2 (Rattus norvegicus)
Assay overview: inhibitors of rat Kvbeta2 reductase activity – biochemical, NADPH fluorescence, primary screen (AID 622);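 note: slope of raw intensity against log time taken from 70 to 1610 s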
Protocol conditions: recombinant KvBeta, 4-cyanobenzaldehyde reduction, at 10 µM, hits give high values
Please provide measured fluorescence slope for the entries that follow.
Numbers only.

Example entries and their recorded answers appear below.
O=C(Cc1cccs1)Nc1ccccc1C(=O)O	-0.524
O=C(c1ccc(Cl)cc1)N(Cc1cccs1)C1CCS(=O)(=O)C1 (stereo unspecified)	-0.555
COc1ccc(C2C3=C(CC(C)(C)CC3=O)Oc3ncn4nc(-c5cccnc5)nc4c32)cc1 (stereo unspecified)	-0.327
Cc1nc2ccccc2c(=O)n1NC(=O)c1c(O)c2c(n(CC(C)C)c1=O)CCCC2	-0.558
CCN1CCN(Cc2ccc(NC(=O)Nc3ccc(SC)cc3)cc2)CC1	-0.54
Cc1cc2oc(C(=O)NC3CCS(=O)(=O)C3)c(C)c2cc1C (stereo unspecified)	-0.576
FC(F)(F)c1cc(-c2ccco2)nc(-n2nnc3ccccc32)n1	-0.562
O=C(NCCc1cccc(Cl)c1)c1cccnc1	-0.562
Cc1ccc(NC(=O)CSc2nnc(NC(=O)CN3CCOCC3)s2)cc1	-0.438
Oc1cnc2ccccc2c1CN1CCOCC1	-0.542

Dear reader, for each entry below, please note its fluorescence slope.
1. O=C(CCN1CCOCC1)Nc1ccc2c(c1)CCC2
2. CC(C)CCNC(=O)NC(=O)CSc1nnc(COc2ccccc2Cl)o1
3. O=C(CCSc1ccccc1)N1CCN(C(=O)c2ccco2)CC1
4. Cc1nc(SCC(=O)N2CCC(C(N)=O)CC2)n[nH]1
5. O=C(C1CCC1)N1CCc2cc(S(=O)(=O)Nc3ccc4c(c3)OCO4)ccc21
6. O=C(CSc1ccc(Cl)cc1)OCc1nnc(-c2ccccc2)o1

[-0.442, -0.513, -0.603, -0.581, -0.391, -0.613]

Dear reader, for each entry below, please note its fluorescence slope.
1. CN(C)S(=O)(=O)c1ccc(C(=O)Nc2ccccc2C(=O)O)cc1
2. Cc1ccc2[nH]c(=O)c(CN(CCc3ccccc3)Cc3nnnn3CC3CCCO3)cc2c1 (stereo unspecified)
3. CCOC(=O)c1cnc(-n2nc(C)cc2C)nc1Nc1cccc(C(C)=O)c1
4. C=CCN1C(=O)/C(=C2\SC(N3CCOCC3)=NC2=O)c2cc(Br)ccc21

1. -0.52
2. -0.498
3. -0.567
4. -0.519

###

Assay overview: endothelial E-selectin expression blockers – imaging, HUVEC, immunofluorescence, MLSMR starter and 10KST1 sets, primary screen (AID 487);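 note: signal is fraction of cell area covered by stained E-selectin grains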
Protocol conditions: HUVEC TNFalpha-induced E-selectin immunofluorescence imaging, at 2 µM; hits give high values
Please provide measured inhibition for the entries that follow.
Numbers only, in %.

Cn1c(Cc2cccs2)nnc1SCC(=O)N1CCc2ccccc21	-67.8

Dear reader, for each entry below, please note its inhibition.
1. CCOCC(=O)Nc1nc2ccc(OC)cc2s1
2. CC(c1nnc(SCC(=O)Nc2sccc2C#N)n1-c1ccc(Cl)cc1)N(C)C (centres undefined)
3. Cn1cnnc1SCC(=O)Nc1sc2c(c1C#N)CCCCC2
4. O=C(NC1CC2CCC1C2)c1ccc(CN2CCOCC2)cc1 (centres undefined)
5. CC1CCN(C(=O)CSc2nnc(-c3cccnc3)n2C2CCCCC2)CC1
6. CSc1nc(NC(C)(C)C)nc(Oc2ccc(=O)[nH]n2)n1
7. NC(N)=Nc1nc(CSCC/C(N)=N/S(N)(=O)=O)cs1

[-85.2, -28.9, -29.2, -7.2, -34.6, -29.6, -48.3]

Dear reader, for each entry below, please note its inhibition.
1. Cc1ccc(S(=O)(=O)N(C)Cc2cc3ccccc3[nH]c2=O)cc1
2. COC(=O)Cn1c(C)nc2c(sc3nc(C)cc(C)c32)c1=O
3. O=C(N1CCCCCC1)N1CCN(S(=O)(=O)N2CCCCC2)CC1
4. COc1cccc(/C(O)=C2/C(=O)C(=O)N(CCN3CCOCC3)C2c2cccnc2)c1 (centres undefined)
5. c1nnc(NC2=NCCCCC2)s1

29.4
16
-33.5
-37.6
33.9

Dear reader, for each entry below, please note its inhibition.
1. CCc1ccccc1N=C1SCC(=O)N1C
2. CC(C)NCC(O)COc1ccc(CC(N)=O)cc1 (centres undefined)
3. COc1cccc(-c2cc(C(F)(F)F)n3nc(N)nc3n2)c1
4. O=C(NCc1ccco1)c1cc2c(s1)CSC2
5. O=c1c(F)cn(C2CCCO2)c(=O)n1Cc1c(F)cccc1Cl (centres undefined)
6. CC(C)CCn1c(SCC#N)nc2c(sc3ccccc32)c1=O
7. CCCC(C(=O)NCc1ccco1)N(C(=O)CNS(=O)(=O)c1ccc(Cl)cc1)C1CCCC1 (centres undefined)
8. O=C(CSc1nc2[nH]ncc2c(=O)n1-c1ccccc1Br)NCc1ccco1

1. -50.2
2. -96.5
3. 31.9
4. -31.1
5. -114
6. -60.1
7. -210
8. -15.2

###

Assay overview: inhibitors of TNFa-induced NFkB p65 translocation, primary screen, imaging, HUVEC, MLSMR starter and 10KST1 sets (AID 438);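 note: compound added about 3h40 before a 20 min TNFalpha stimulation; signal is the nuclear over cytoplasmic p65 intensity ratio per well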
Protocol conditions: HUVEC TNFa-induced p65 nuclear translocation; at 2 µM, hits give high values, 0% TNFa-plus-vehicle, 100% no-TNFa wells
Please provide measured inhibition for the entries that follow.
Answers are plain numbers, in %.

Example entries and their recorded answers appear below.
CC(=O)OC(C(=O)NCc1ccco1)c1cccnc1 (stereo unspecified)	-36.2
CCNC(=O)CC1C(=O)N(c2ccc(F)cc2)C(=O)N1CCC(C)C (stereo unspecified)	-10.8

Dear reader, for each entry below, please note its inhibition.
1. O=S(=O)(c1ccccc1)N1CCN(C2CCCCCCC2)CC1
2. Cc1cc(SCC(N)=O)nc(SCC(=O)c2ccccc2)n1
3. COc1ccccc1-c1c(C)nn2c(N3CCC4(CC3)OCCO4)cc(C)nc12
4. CC1(C)CC(=O)C(C=NCCO)=C(O)C1
5. O=C(c1ccco1)N1CCN(CC(=O)N(C2CCCCC2)C2CCS(=O)(=O)C2)CC1 (stereo unspecified)

9.7
-3.3
-2.1
-1.8
-5.7

Dear reader, for each entry below, please note its inhibition.
1. COc1ccc(CC(NC(C)=O)C(=O)NC2CCN(C(=O)Nc3ccc(C#N)cc3)CC2)cc1OC (stereo unspecified)
2. CCOC(=O)CCCn1nc(C)n2c(cc3sccc32)c1=O
3. COCCn1c(SCC(=O)Nc2nnc(C)s2)nnc1-c1ccncc1
4. CCc1ccc(NS(=O)(=O)c2ccc3[nH]cc(C(=O)N4CCCCC4)c(=O)c3c2)cc1

1: -1.9; 2: -3.2; 3: -7.5; 4: 13.7

###

Target or system: Muscarinic acetylcholine receptor M4 (Homo sapiens) (UniProt P08173)
Sequence (P08173 whole entry, looked up): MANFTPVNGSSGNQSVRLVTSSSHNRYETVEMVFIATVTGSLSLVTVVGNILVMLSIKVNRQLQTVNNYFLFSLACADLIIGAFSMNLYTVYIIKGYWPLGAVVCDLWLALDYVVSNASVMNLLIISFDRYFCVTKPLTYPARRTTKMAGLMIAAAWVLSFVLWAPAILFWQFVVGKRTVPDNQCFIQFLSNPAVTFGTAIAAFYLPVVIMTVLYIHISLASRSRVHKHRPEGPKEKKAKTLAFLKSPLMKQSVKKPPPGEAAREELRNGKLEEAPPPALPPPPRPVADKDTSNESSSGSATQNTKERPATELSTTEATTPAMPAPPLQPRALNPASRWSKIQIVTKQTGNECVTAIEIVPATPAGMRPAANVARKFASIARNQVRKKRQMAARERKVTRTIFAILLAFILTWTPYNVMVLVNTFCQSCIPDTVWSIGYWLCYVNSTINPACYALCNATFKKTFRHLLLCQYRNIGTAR
Assay overview: M4-linked GIRK flux change, two-sided – cell-based, HEK293 M4/GIRK, thallium flux, BTC-AM, M4 allosteric agonist project, primary screen (AID 625);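 note: thallium influx through GIRK channels coupled to M4 in HEK293 cells with BTC-AM dye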
Protocol conditions: at 10 µM, actives lie on both sides
The label is Yes for fluorescence slope below 0.005 and No for fluorescence slope equal to or exceeding 0.005.

Look over these answered cases.
Cn1cccc1C(=O)NC(=O)CSc1nnc(C2CC2)n1-c1ccccc1	No
CC(CN1CCOCC1)(NS(=O)(=O)c1ccccc1)c1ccccc1 (stereo unspecified)	No

Moving on to another compound below.
Hello, is fluorescence slope of the following compound strictly smaller than 0.005? `CCc1nc(C)c(-c2ccccc2)c(=O)[nH]1`
Yes

###

Please provide measured inhibition for the entries that follow.
Assay overview: inhibitors of TNFa-induced NFkB p65 translocation, primary screen, imaging, HUVEC, MLSMR starter and 10KST1 sets (AID 438);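 note: compound added about 3h40 before a 20 min TNFalpha stimulation; signal is the nuclear over cytoplasmic p65 intensity ratio per well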
Protocol conditions: HUVEC TNFa-induced p65 nuclear translocation; at 2 µM, hits give high values, 0% TNFa-plus-vehicle, 100% no-TNFa wells
The source made the active and inactive calls.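 How the source made its calls: active means inhibition above 20% together with a positive visual image hit; inconclusive means visual image hit but inhibition not above 20%; inactive means no visual image hit.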

Cc1ccc(C(=O)CCC2CCCC2=O)cc1 (configuration not stated)	-21.6% (inactive)

Dear reader, for each entry below, please note its inhibition.
1. CCC(C)NC(=O)C1CCCN(S(=O)(=O)c2ccc(-n3cnnn3)cc2)C1 (configuration not stated)
2. FC(F)(F)c1cc(-c2ccco2)nc(-n2nnc3ccccc32)n1

1: -5.4% (inactive); 2: -6.9% (inactive)

Dear reader, for each entry below, please note its inhibition.
1. CC(C)OP(=O)(c1ccc(N(C)C)cc1)C(O)c1ccccc1F (configuration not stated)
2. O=C(Nc1ccc(N2CCCC2=O)cc1)c1cccc(F)c1
3. COc1ccc(N(CC(=O)N2c3ccccc3CC2C)S(=O)(=O)c2c(C)noc2C)cc1 (configuration not stated)
4. CC1CCN(C(=O)Cn2c(=O)oc3ccccc32)CC1
5. Cc1cccc(CS(=O)(=O)Cc2ccc(C(=O)NCC3CCCO3)o2)c1 (configuration not stated)
6. O=S(=O)(NCC1CCCO1)c1ccc(S(=O)(=O)N2CCc3ccccc3C2)cc1 (configuration not stated)
7. Cc1cc(-c2ccccc2)nc2cc(C(N)=O)nn12
8. COc1ccc(CCNS(=O)(=O)c2ccc3c(c2)CCN3C(=O)CCC(=O)O)cc1OC

["-7.2% (inactive)", "-5.9% (inactive)", "-5.8% (inactive)", "-0.6% (inactive)", "4.5% (inactive)", "-4.3% (inactive)", "-5.5% (inactive)", "-6.5% (inactive)"]

Dear reader, for each entry below, please note its inhibition.
1. CCCCCCC(=O)c1c(C)[nH]c(C(=O)OCC)c1C
2. CC1CCN(CCC(=O)Nc2ccc(Br)cc2)CC1

1: -4.2% (inactive); 2: 7.4% (inactive)

Dear reader, for each entry below, please note its inhibition.
1. O=C(NC1CCCCC1)C1CC(O)CN1C(=O)OCc1ccccc1 (configuration not stated)
2. CCn1c(SCC(=O)NCCc2ccc(Cl)cc2)nnc1-c1cccs1
3. C=CCN1C(=O)/C(=C2/Sc3ccccc3N2C)SC1=Nc1c(C)n[nH]c1C
4. Cc1ccnc(NC(=O)CCC(=O)N(CC(=O)NC2CCCCC2)c2cccc(C)c2C)c1

1: -4.1% (inactive); 2: 6.9% (inactive); 3: -0.2% (inactive); 4: 4.4% (inactive)
